# System: Plasmodium falciparum
# assayRemarks: Primary screen in NF54 nanoGlo assay, in single point, at 2uM, 72h; a lower Z score goes with more inhibition
# Type: functional, Erythrocyte
# assayConditions: timepoint 72 hour
The whole screen tested about 150,000 compounds, of which about 540 (0.36%) showed an effect of 50% or more. Only a selection was taken, and strong results are over-represented in it overall.
For each entry below, report its Z score value.
// no unit string in output, number only

In: Which Z score is reported with Plasmodium falciparum for this entry: c1ccc2c(C(c3c[nH]c4ccccc34)c3c[nH]c4ccccc34)c[nH]c2c1 ?
Out: 3.19

In: Which Z score is reported with Plasmodium falciparum for this entry: CCn1cc(-c2nc(-c3ccccc3)no2)c(=O)c2cc(F)c(N3CCCCC3)cc21 ?
Out: 1.55

In: Which Z score is reported with Plasmodium falciparum for this entry: CN1CCC(N(C)CC(NCC2CCC=CO2)c2ccccc2)CC1 (configuration not stated) ?
Out: 0.49

In: Which Z score is reported with Plasmodium falciparum for this entry: Cc1cc(NC(=O)c2cccc(-n3ccnn3)c2)nc(=O)[nH]1 ?
Out: 2.12

In: Which Z score is reported with Plasmodium falciparum for this entry: O=C(Cn1ncn2nc(-c3ccccc3)cc2c1=O)N1CCCCC1 ?
Out: 1.75

In: Which Z score is reported with Plasmodium falciparum for this entry: C[n+]1ccccc1/C=C/c1c[nH]c2ccccc12 ?
Out: -8.06

In: Which Z score is reported with Plasmodium falciparum for this entry: COc1ccc(C(=O)c2oc3ccccc3c2NC(=O)c2csnn2)cc1Cl ?
Out: 1.56

In: Which Z score is reported with Plasmodium falciparum for this entry: O=C(NCC(O)c1ccccc1Cl)C1CCCN1 (configuration not stated) ?
Out: -0.1

In: Which Z score is reported with Plasmodium falciparum for this entry: CCc1ccc(/C=C/c2c[nH]c3ccccc23)[n+](CC)c1 ?
Out: -8.52

In: Which Z score is reported with Plasmodium falciparum for this entry: Cc1cnc([C@H](C)N2CCC(S(=O)(=O)N3CCCC3)CC2)o1 ?
Out: 2.67

In: Which Z score is reported with Plasmodium falciparum for this entry: O=C(N[C@H]1CCS(=O)(=O)C1)c1cccc(Oc2cccc(C(F)(F)F)c2)c1 ?
Out: 2.94

In: Which Z score is reported with Plasmodium falciparum for this entry: COCC1(CNC(=O)CNC(C)=O)CCCC1 ?
Out: 0.85

In: Which Z score is reported with Plasmodium falciparum for this entry: O=C(Nc1cccnc1)c1cccc(Oc2cccc(C(F)(F)F)c2)c1 ?
Out: 1.85

In: Which Z score is reported with Plasmodium falciparum for this entry: Cc1ccc(-n2cnc3c2CCN(C(=O)C(=O)Nc2c4c(nn2C)CCCC4)C3)cc1 ?
Out: 1.99

In: Which Z score is reported with Plasmodium falciparum for this entry: CCn1cc(C(=O)O)c(=O)c2cc(F)c(N3CCN(S(=O)(=O)c4ccccc4)CC3)cc21 ?
Out: 0.66

In: Which Z score is reported with Plasmodium falciparum for this entry: Cc1noc(C)c1C(=O)N1CCC[C@H](Oc2ncc(Cl)cn2)C1 ?
Out: 0.45

In: Which Z score is reported with Plasmodium falciparum for this entry: COc1ccc(OC)c2c(/C=C/c3c[nH]c4ccccc34)ccnc12 ?
Out: 0.9

In: Which Z score is reported with Plasmodium falciparum for this entry: CCn1cc(C#N)c(=O)c2cc(F)c(N3CCN(Cc4ccccc4)CC3)cc21 ?
Out: -7.22

In: Which Z score is reported with Plasmodium falciparum for this entry: Cc1cccc(OC2CN([C@@H](C)CCN(C)C)C2)c1 ?
Out: 2.04

In: Which Z score is reported with Plasmodium falciparum for this entry: Cc1[nH]c2ncnc(NC(=O)c3cccc(S(=O)(=O)NC4CC4)c3)c2c1C ?
Out: 3.01

In: Which Z score is reported with Plasmodium falciparum for this entry: c1ccc(COC[C@H](Nc2ncnc3ccccc23)c2ccccc2)cc1 ?
Out: 1.08

In: Which Z score is reported with Plasmodium falciparum for this entry: COc1ccc([C@@H](CC(=O)NCc2ccc(F)cc2)c2c[nH]c3ccccc23)c(OC)c1 ?
Out: -0.42
